src = patent US8906909B2

System: BT-474 cells
Test: Cell proliferation assay Method A (ATPlite), BT-474
Format: cell-based
Conditions: Homo sapiens, 72 hours, read-out: antiproliferative activity IC50, BT-474
parameterMeasured: IC50

Complete the entry with IC50 for "N#CCCN(Cc1cc2nc(-c3cccc4[nH]ncc34)nc(N3CCOCC3)c2s1)c1ncc(C(=O)NO)cn1"
100 to 1000 nM

Complete the entry with IC50 for "CN(Cc1cc2nc(-c3ccc(N)nc3)nc(N3CCOCC3)c2s1)c1ncc(C(=O)NO)cn1"
< 100 nM

Complete the entry with IC50 for "CN(Cc1cc2nc(-c3ccc(N)cc3)nc(N3CCOCC3)c2s1)c1ncc(C(=O)NO)cn1"
< 100 nM

Complete the entry with IC50 for CC(c1cc2nc(-c3cccc4[nH]ncc34)nc(N3CCOCC3)c2s1)N(C)c1ncc(C(=O)NO)cn1 (stereo not drawn)
< 100 nM

Complete the entry with IC50 for "O=C(NO)c1cnc(N(CCO)Cc2cc3nc(-c4cccc5[nH]ncc45)nc(N4CCOCC4)c3s2)nc1"
100 to 1000 nM

Complete the entry with IC50 for "CC(=O)OCCN(Cc1cc2nc(-c3cccc4[nH]ncc34)nc(N3CCOCC3)c2s1)c1ncc(C(=O)NO)cn1"
1000 to 10000 nM
